Target: TaVTC2 (Triticum aestivum)
Construct: full-length CDS; recombinant GST fusion (TaVTC2-GST) from E. coli BL21
Sequence (A0A650C200 1-431): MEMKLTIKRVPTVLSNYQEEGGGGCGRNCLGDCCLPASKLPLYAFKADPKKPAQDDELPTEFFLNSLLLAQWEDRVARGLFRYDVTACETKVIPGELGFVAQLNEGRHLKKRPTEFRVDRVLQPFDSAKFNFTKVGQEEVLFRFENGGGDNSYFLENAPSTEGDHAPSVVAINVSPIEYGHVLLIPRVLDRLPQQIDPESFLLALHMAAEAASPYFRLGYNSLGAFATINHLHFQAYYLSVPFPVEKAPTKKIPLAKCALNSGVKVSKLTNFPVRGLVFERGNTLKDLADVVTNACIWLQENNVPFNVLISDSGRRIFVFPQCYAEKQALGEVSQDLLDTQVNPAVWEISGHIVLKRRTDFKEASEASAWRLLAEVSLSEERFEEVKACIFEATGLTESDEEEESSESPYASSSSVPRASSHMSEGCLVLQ
Test: microscale thermophoresis
REPORTED_PROPERTY: pKd
Numbers only, as −log10 of the molar value.

GET /value?item= Nc1nc2c(ncn2[C@@H]2O[C@H](COP(=O)(O)OP(=O)(O)O[C@H]3O[C@@H](CO)[C@@H](O)[C@@H](O)[C@@H]3O)[C@@H](O)[C@H]2O)c(=O)[nH]1 &field=pKd returns 5.57
